MIC-fold improvement vs. vancomycin values, listed per item
Tested on: E. faecalis VRE 53
Experiment: MIC, broth microdilution, vancomycin-resistant E. faecalis VRE 53 (VanA)
Format: cell-based, Enterococcus faecalis
Settings: VRE 53; ratio of MIC of vancomycin and MIC of analogue
Method: The minimum inhibitory concentration (MIC) was determined using the broth microdilution method according to the antimicrobial susceptibility testing standards of the clinical and laboratory standards institute ([Clinical and Laboratory Standards Institute [CLSI], 2012]). Ultrapure water and non-inoculated broth were used as controls. In one case, a final concentration of 10 μM vancomycin was included with the vancomycin analog or control antibiotic.
Format: numeric value only, no unit, no commentary.

Data request: Return MIC-fold improvement vs. vancomycin for the following compound: CCOc1ccc(-c2ccc(NC(=O)CNC(=O)C3NC(=O)C4NC(=O)C(NC(=O)C5NC(=O)C(CC(N)=O)NC(=O)C(NC(=O)C(CC(C)C)NC)C(O)c6ccc(c(Cl)c6)Oc6cc5cc(c6OC5OC(CO)C(O)C(O)C5OC5CC(C)(N)C(O)C(C)O5)Oc5ccc(cc5Cl)C4O)c4ccc(O)c(c4)-c4c(O)cc(O)cc43)cc2)cc1 (centres unmarked) [Vanc-86]
Data returned: 32

Turning now to a further record.
Data request: Return MIC-fold improvement vs. vancomycin for the following compound: CNC(CC(C)C)C(=O)NC1C(=O)NC(CC(N)=O)C(=O)NC2C(=O)NC3C(=O)NC(C(=O)NC(C(=O)NCCCNC(=O)c4ccc(-c5ccc(F)cc5)cc4)c4cc(O)cc(O)c4-c4cc3ccc4O)C(O)c3ccc(c(Cl)c3)Oc3cc2cc(c3OC2OC(CO)C(O)C(O)C2OC2CC(C)(N)C(O)C(C)O2)Oc2ccc(cc2Cl)C1O (centres unmarked) [Vanc-34]
Data returned: 32
